Listed here: items and their measured selectivity ratio.
Assay: Selectivity index, ratio of CC50 for human MRC5 cells to IC50 for Acinetobacter baumannii ATCC 17978
Type: toxicity
Conditions: read-out: Ratio CC50/IC50
Form rule: numeric answer, no unit written next to it.

These solved cases illustrate the format of a correct answer.
test.smiles | selectivity ratio
CCOC(=O)[C@H]1O[C@@H](n2ccc(N)nc2=O)C=C[C@@H]1NC(=O)C[C@@H](N)CCN(C)C(=N)N.Cl.Cl.Cl | 0.3
CN(CC[C@H](N)CC(=O)N[C@H]1C=C[C@H](n2ccc(N)nc2=O)O[C@@H]1C(=O)OCCc1ccccc1)C(=N)N | 0.2
CN(CC[C@H](N)CC(=O)N[C@H]1C=C[C@H](n2ccc(N)nc2=O)O[C@@H]1C(N)=O)C(=N)N.Cl.Cl.Cl | 3
CN(CC[C@H](N)CC(=O)N[C@H]1C=C[C@H](n2ccc(N)nc2=O)O[C@@H]1C(=O)OCc1ccccc1)C(=N)N | 0.2

// lookup selectivity ratio for CN(CC[C@H](N)CC(=O)N[C@H]1C=C[C@H](n2ccc(N)nc2=O)O[C@@H]1C(=O)O)C(=N)N.Cl 0.2

Now consider CCCCOC(=O)[C@H]1O[C@@H](n2ccc(N)nc2=O)C=C[C@@H]1NC(=O)C[C@@H](N)CCN(C)C(=N)N . 0.3

Now consider CCCOC(=O)[C@H]1O[C@@H](n2ccc(N)nc2=O)C=C[C@@H]1NC(=O)C[C@@H](N)CCN(C)C(=N)N . 0.2
